assayed.system: PilB^WT (T. thermophilus PilB/PilF, TtPilB) (Thermus thermophilus)
Sequence (Q72H73 entry or part of it): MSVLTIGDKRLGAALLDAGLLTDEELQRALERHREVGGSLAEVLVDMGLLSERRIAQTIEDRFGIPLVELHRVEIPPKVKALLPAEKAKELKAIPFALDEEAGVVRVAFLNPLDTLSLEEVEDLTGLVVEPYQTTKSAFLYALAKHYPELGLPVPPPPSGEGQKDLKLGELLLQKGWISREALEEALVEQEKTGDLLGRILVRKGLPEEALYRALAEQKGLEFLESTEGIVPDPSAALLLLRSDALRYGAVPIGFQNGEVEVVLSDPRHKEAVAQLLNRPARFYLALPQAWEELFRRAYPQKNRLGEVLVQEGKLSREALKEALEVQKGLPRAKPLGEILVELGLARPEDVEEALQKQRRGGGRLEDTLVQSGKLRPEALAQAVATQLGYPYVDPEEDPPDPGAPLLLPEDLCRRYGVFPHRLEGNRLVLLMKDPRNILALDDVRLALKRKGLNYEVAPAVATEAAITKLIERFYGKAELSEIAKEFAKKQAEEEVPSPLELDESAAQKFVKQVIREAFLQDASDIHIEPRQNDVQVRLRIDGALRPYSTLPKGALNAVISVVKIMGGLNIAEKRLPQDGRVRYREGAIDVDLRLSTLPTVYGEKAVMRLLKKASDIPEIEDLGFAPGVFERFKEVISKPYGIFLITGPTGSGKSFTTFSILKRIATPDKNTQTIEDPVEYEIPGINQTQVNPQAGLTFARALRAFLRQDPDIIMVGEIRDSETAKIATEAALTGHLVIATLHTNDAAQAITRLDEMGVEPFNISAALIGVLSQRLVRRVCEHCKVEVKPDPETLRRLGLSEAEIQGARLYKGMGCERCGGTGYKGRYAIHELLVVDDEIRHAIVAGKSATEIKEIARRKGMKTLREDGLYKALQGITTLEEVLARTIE
protocol.description: fluorescence titration of MANT-ATP with purified protein
property.measured: Kd (nM)
Numbers only, in nM.

Report Kd for CNc1ccccc1C(=O)O[C@H]1[C@@H](O)[C@H](n2cnc3c(N)ncnc32)O[C@@H]1CO[P@@](=O)(O)O[P@](=O)(O)OP(=O)(O)O (mixture of isomers) [MANT-ATP] please.
170

* * *

assayed.system: PilB^WA (T. thermophilus PilB/PilF, TtPilB) (Thermus thermophilus, UniProt Q5SLC9, K654A)
Sequence (Q5SLC9 whole entry K654A): as the sequence (Q72H73 entry or part of it) above, with K654A counted along it
protocol.description: fluorescence titration of MANT-ATP with purified protein
property.measured: Kd (µM)
Give bare numbers, in µM.

So what does the record say about Kd for CNc1ccccc1C(=O)O[C@H]1[C@@H](O)[C@H](n2cnc3c(N)ncnc32)O[C@@H]1CO[P@@](=O)(O)O[P@](=O)(O)OP(=O)(O)O (mixture of isomers) [MANT-ATP] ?
1.23
